Each entry below lists one item and its recorded pKd value.
target: knob domain of the FAdV-4 Fiber2 protein (amino acids 279–479) (fowl adenovirus serotype 4 (FAdV-4)); assay: SPR
pKd: −log10 of the molar value.
measuredEndpoint: pKd

>>> measured("MQKHEW [peptide P25]")
5.86
>>> measured("QWKIEK [peptide P5]")
5.92
>>> measured("QWKIHR [peptide P6]")
5.56
>>> measured("MQKKFI [peptide P30]")
6.04
>>> measured("MQKHCG [peptide P27]")
6.24
>>> measured("QWKARV [peptide P14]")
4.62
>>> measured("QWKKHI [peptide P1]")
5.21
>>> measured("WWHEKE [peptide number 15 (P15; WWHEKE)]")
5.84
>>> measured("QWKNCK [peptide P10]")
5.99

These entries and their values trace back to paper PMC10146638.
